# Measured target: T1, human LIV-1 (human, UniProt Q13433 29-755)
# T1 sequence (looked up): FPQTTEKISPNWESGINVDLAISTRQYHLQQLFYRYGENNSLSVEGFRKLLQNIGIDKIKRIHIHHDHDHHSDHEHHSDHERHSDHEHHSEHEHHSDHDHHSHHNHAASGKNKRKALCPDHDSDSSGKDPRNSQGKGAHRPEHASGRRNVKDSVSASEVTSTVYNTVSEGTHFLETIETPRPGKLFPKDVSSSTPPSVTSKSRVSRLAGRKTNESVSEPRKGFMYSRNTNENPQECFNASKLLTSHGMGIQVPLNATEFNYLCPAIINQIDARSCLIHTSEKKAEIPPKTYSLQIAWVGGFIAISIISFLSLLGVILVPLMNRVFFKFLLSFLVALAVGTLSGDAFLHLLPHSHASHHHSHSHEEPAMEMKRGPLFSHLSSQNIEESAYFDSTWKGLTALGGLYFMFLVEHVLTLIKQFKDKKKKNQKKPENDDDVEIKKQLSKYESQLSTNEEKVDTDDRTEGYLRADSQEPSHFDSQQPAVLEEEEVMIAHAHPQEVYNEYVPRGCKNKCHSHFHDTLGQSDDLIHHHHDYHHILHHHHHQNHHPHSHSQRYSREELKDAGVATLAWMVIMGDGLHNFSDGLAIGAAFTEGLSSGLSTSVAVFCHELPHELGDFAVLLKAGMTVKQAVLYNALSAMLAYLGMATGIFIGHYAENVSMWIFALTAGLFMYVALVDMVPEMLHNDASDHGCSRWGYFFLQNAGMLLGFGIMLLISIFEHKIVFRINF
# Method: cell-based or functional assay
Reported property: Internalization Top (RFU)
Form entry: value (RFU) — number only.

Worked examples follow.
# Binder, Scale unit, Endpoint value
rows = [
    ("290F10G10 (antibody, V domains shown, Tested as chimeric antibody) VH: IQLQQSGAELARPGASVKLSCKASGYTFTSYWIHWVKERPGQGLEWIGTIYPGDGDTRSTQKFKDKATVTAEKSSSTVYMQLSSLASEDSAVYYCTRSLIHDDYDKYYFDYWGQGTTLTVSS VL: DIQMTQSPSSLSASLGGKVTITCKARQDINKYIAWYQHKPGKGPRLLIHYTSILQPGIPSRFSGSGSGRDYSFSISNLEPEDIATYYCLQYDYFFTFGSGTKLEIK", "RFU", 298000),
    ("282G5A2 (antibody, V domains shown, Tested as chimeric antibody) VH: QVQLQQSGAELVRPGTSVKVSCKASGYALTKYLIEWIKQRPGQGLEWIGVINPGNAGNNYNEKFKGKATLTVDQSSSTAYMQLSSLTSEDSAVYFCARRGRDYAMDNWGQGTSVTVSS VL: EIVLTQSPAIMSASLGEKVTMSCRASSSINYIYWYQQKSDASPKLWIYYTSNLAPGVPARFSGSGSGNSYSLTISSMEDEDAATYYCQQFTSSPLTFGAGTKLELK", "RFU", 227000),
    ("59C12C8 (antibody, V domains shown, Tested as chimeric antibody) VH: EVQLQQSGAELVRSGASVKLSCTASDFNIEDYYIHWVKQRPEQGLEWIGWIDPENGDTEYAPKFQGKATMTADTSSNTAYLQLSSLTSEDTAVYYCPHGGGFRVFDYWGQGTTLTVSS VL: DVLMTQTPLSLPVSLGDQASISCRSSQRIVHSNGNTYLEWYLQKPGQSPKLLIYKVSNRFSGVPDRFSGSGSGTDFTLKISRVEAEDLGVYYCFQGSHVPWTFGGGTKLEIK", "RFU", 408000),
    ("109C9D4 (antibody, V domains shown, Tested as chimeric antibody) VH: EVKLVESGGGLVQPGGSRKLSCAASGFTFSDYGMAWVRQAPGKGPEWVTFISNLAYSIYYADTVTGRFTISRENAKNTLYLEMSSLRSEDTAMYYCARVEENGNYFDYWGQGTTLTVSS VL: DIQMTQTTSSLSASLGDRVTIRCRASQDIGIYLHWYQQKPDGTVKLLIYYTSRLHSGVPSRFSGSRSGTDYSLTIGNLEQEDIATYFCLQGNTIPPTFGGGTKLEIK", "RFU", 554000),
    ("39D10B2 (antibody, V domains shown, Tested as chimeric antibody) VH: QVQLKQSGPGLVQPSQSLSITCTVSGFSLTTYGVHWVRQSPGKGLEWLGVIWTGGTTDYNAAFISRLSISKDNSKSQVFFKMNSLQANDTAMYYCARGPSSYWGQGTLVTVSA VL: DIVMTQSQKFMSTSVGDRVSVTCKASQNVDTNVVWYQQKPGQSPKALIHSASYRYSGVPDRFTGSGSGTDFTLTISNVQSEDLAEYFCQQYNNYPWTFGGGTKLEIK", "RFU", 171000),
]

Ask | Which Internalization Top (RFU) is listed for 293F10B6 (antibody, V domains shown, Tested as chimeric antibody) VH: QVTLKESGPGMLQPSQTLNLTCSFSGFSLNTSGMGVSWIRQPSGKGLEWLAHIFWDDDKRYNPSLKSRLTISKDVSSNQVFLKITSVDTADTATYFCARRARNNYPWFPYWGQGTLVTVSA VL: DIVLTQSPASLAVSLGQRATISCKASQSVDYDGDSYMNWYQQKPGQPPKLLIYAASNLDSGIPARFSGSGSGTDFTLNIHPMEDEDVATYYCQQSNGAPFTFGGGTKLEIK ?
Reply | 495000

Entry source: patent US20240325555A1
